# Test system: CD2F1 mice, L1210 leukemia ip, survival T/C
# ASSAY_INFO: NCI In Vivo Anticancer Drug Screen. Data for tumor model L1210 Leukemia (intraperitoneal) in CD2F1 (CDF1) mice
# MEASUREMENT_PARAMETERS: endpoint: mean survival time; dose: 100.0 mg/kg/injection; schedule: Q04DX002 (ip); vehicle: saline with Tween-80; higher = longer survival
Inconclusive results and toxic doses are left out.
For each entry below, report its T/C value.

Answered examples (10):
1. Cc1ccc2nc(-c3ccc(Cl)cc3Cl)oc(=O)c2c1: 100 % of control
2. C/C=C/C=C/C(=O)n1nnn(/C=C/C=C/C)c1=O: 91 % of control
3. O=C1C2C3CCC(O3)C2C(=O)N1CC#CCN1C(=O)C2C3CCC(O3)C2C1=O (stereo unspecified): 98 % of control
4. CCOC(=O)c1nc(SC)n(C)c1C(=O)OCC: 94 % of control
5. COc1cc([N+](=O)[O-])ccc1NC=O: 90 % of control
6. COc1ccc(CCNC(=O)Cc2ccc3c(c2)OCO3)cc1OC: 87 % of control
7. O=C(COc1ccc(F)cc1)OCCO: 105 % of control
8. C=CC(=O)c1ccccc1: 111 % of control
9. CC(C)(C)C1SCC(CO)CS1 (stereo unspecified): 97 % of control
10. CCN(CC)C(=S)SCCSC(=S)N(CC)CC: 92 % of control

# return T/C for each item in the list
1. CCCCCCCCCCCCCCN1CCCN(CCCCCCCCCCCCCC)CC1
2. COc1ccc(NC(=O)Nc2ccc(OC)cc2Cl)cc1
3. O=C(O)C1C(=O)CC2(O)c3ccccc3-c3ccccc3C12 (stereo unspecified)
4. N=C(N)SCc1cccc([N+](=O)[O-])c1
5. CC1SC(=Nc2ccc(S(N)(=O)=O)cc2)NC1=O (stereo unspecified)
6. Cc1cc([N+](=O)[O-])ccc1NC(=S)NC(=O)COc1ccccc1
7. COC(=O)/C([O-])=C(\C(=O)OC)[n+]1cc(Br)cc2ccccc21

96 % of control
90 % of control
96 % of control
97 % of control
105 % of control
95 % of control
101 % of control

Give T/C for each listed item.
1. Oc1ccccc1C=NC1CCCCC1N=Cc1ccccc1O.[Cu] (stereo unspecified)
2. CCCCOC(=O)COc1c(Cl)ccc(Cl)c1Cl
3. NC(=O)C(CCCCC(C(N)=O)C(N)=O)C(N)=O
4. O=C(/C=C/c1ccccc1)Nc1ccccc1Cl
5. NCCC(O)C(=O)NC1CC(N)C(OC2OC(CN)C(O)C(O)C2N)C(OC2OC(CO)C(O)C2O)C1O (stereo unspecified)
6. Cc1ccc(/C(C#N)=C/c2ccc3c(c2)OCO3)cc1
7. NC(=O)C1(C(N)=O)CCCCC1

["88 % of control", "102 % of control", "96 % of control", "105 % of control", "100 % of control", "94 % of control", "112 % of control"]

Dear reader, for each entry below, please note its T/C.
1. O=C(NCCS)Nc1ccccc1
2. CCOc1ccc(OCC)c(NC(=O)Nc2ccccc2C)c1

["104 % of control", "90 % of control"]

###

# Test system: CD2F1 mice, L1210 leukemia ip, survival T/C
# ASSAY_INFO: NCI In Vivo Anticancer Drug Screen. Data for tumor model L1210 Leukemia (intraperitoneal) in CD2F1 (CDF1) mice
# MEASUREMENT_PARAMETERS: endpoint: mean survival time; dose: 200.0 mg/kg/injection; schedule: Q04DX003 (ip); vehicle: saline with Tween-80; higher = longer survival
Inconclusive results and toxic doses are left out.
PROPERTY: T/C

Examples from the recorded data:
1. Nc1nc(N)nc(-c2ccccc2)n1: 98 % of control
2. COc1ccc(C=NC2CC(C)CCC2C)c(OC)c1 (configuration not stated): 95 % of control
3. CCOCCC(=O)NCc1ccccc1: 98 % of control
4. CC(C)(C)C(CCC(=O)O)CC(=O)O (configuration not stated): 96 % of control
5. COc1ccc(C[C@@H]2NC[C@@H](O)[C@@H]2OC(C)=O)cc1: 103 % of control

For each entry beneath this line, provide reported T/C.
1. OCC1C2C=CC1CC2 (configuration not stated)
2. CC1CC2(C)C(CC1=O)CC(C)C1C3CCC(O)C3(C)CCC12 (configuration not stated)

1: 96 % of control; 2: 92 % of control

###

I'd be grateful if you could share measured T/C for these entries.
# Tested on: CD2F1 mice, L1210 leukemia ip, survival T/C
# ASSAY_INFO: NCI In Vivo Anticancer Drug Screen. Data for tumor model L1210 Leukemia (intraperitoneal) in CD2F1 (CDF1) mice
# MEASUREMENT_PARAMETERS: endpoint: mean survival time; dose: 400.0 mg/kg/injection; schedule: Q04DX003 (ip); vehicle: saline with Tween-80; higher = longer survival
Toxic doses and inconclusive results are not listed.

1) N#CCCOS(=O)(=O)c1cccc([N+](=O)[O-])c1: 93 % of control
2) Cc1ccc(CC(F)(F)F)cc1: 108 % of control
3) CC(C)C(=NO)C(C)C: 91 % of control
4) FC(F)(F)Cc1cccc(C(F)(F)F)c1: 100 % of control
5) CCCCCCCCCCCCCCCCCCCCCC(O)(CC)CC: 95 % of control

Each of the following entries comes with a recorded value; kindly state T/C for each.
1. O=C(O)c1cccc2[nH]c(=O)oc(=O)c12
2. Nc1nc(N)c(N=Nc2cccc(S(=O)(=O)O)c2)c(N)n1

["93 % of control", "101 % of control"]

Batch request: T/C for each of the following molecules.
1. CCCCNC(=O)Oc1ccc(C(=O)OCC)cc1
2. CCCCCCCCCCCC[Si](CCCCCCCCCCCC)(c1ccccc1)c1ccccc1

1: 90 % of control; 2: 93 % of control

Hi! Can you tell me T/C for each of these molecules?
1. N/N=C(\C(=N\N)c1ccccc1)c1ccccc1
2. C=C1CCCCC1C(C(=O)O)(c1ccccc1)c1ccccc1 (configuration not stated)
3. O=C1c2ccccc2-c2ccc3c4ccc5c6c(ccc(c7ccc1c2c73)c64)C(=O)c1ccccc1-5

1: 89 % of control; 2: 100 % of control; 3: 96 % of control

###

# Test system: CD2F1 mice, L1210 leukemia ip, survival T/C
# ASSAY_INFO: NCI In Vivo Anticancer Drug Screen. Data for tumor model L1210 Leukemia (intraperitoneal) in CD2F1 (CDF1) mice
# MEASUREMENT_PARAMETERS: endpoint: median survival time; dose: 50.0 mg/kg/injection; schedule: Q01DX005 (ip); vehicle: saline; higher = longer survival
# Method: The antitumor activity of compounds was measured in mice bearing transplantable tumors. Survival or tumor size were measured and the results are expressed as the measurement made in the treated group (T) divided by the measurement made in the vehicle treated control group (C). The tumor model used in this assay is L1210 Leukemia (intraperitoneal) in CD2F1 (CDF1) mice
Toxic doses and inconclusive results are not listed.
For each of the molecules below, state its T/C.

The cases that follow already have their T/C on record.
1) COc1ccc(C(OCC2OC(n3cc(C)c(=O)[nH]c3=O)CC2OP(=O)(O)OCC2OC(n3cc(C)c(=O)[nH]c3=O)CC2OP(=O)(O)OCC2OC(n3cc(C)c(=O)[nH]c3=O)CC2OP(=O)(O)OCC2OC(n3cc(C)c(=O)[nH]c3=O)CC2OP(=O)(O)OCC2OC(n3ccc(N)nc3=O)C(O)C2O)(c2ccccc2)c2ccccc2)cc1 (stereo unspecified): 122 % of control
2) COP(=O)(OC)OCC1OC(n2ccc(N)nc2=O)C(O)C1O (stereo unspecified): 110 % of control
3) N/C(=N/O)NO: 109 % of control
4) CC(=O)Nc1nc2nccn2c(=O)[nH]1: 101 % of control

// for each molecule in input: emit T/C
1. O=C([O-])C1OC([n+]2ccccc2)C(O)C(O)C1O (stereo unspecified)
2. COc1nc(NC2OC(CO)C(O)C(O)C2O)c(Br)c(=O)[nH]1 (stereo unspecified)

["107 % of control", "102 % of control"]

###

# Tested on: CD2F1 mice, L1210 leukemia ip, survival T/C
# ASSAY_INFO: NCI In Vivo Anticancer Drug Screen. Data for tumor model L1210 Leukemia (intraperitoneal) in CD2F1 (CDF1) mice
# MEASUREMENT_PARAMETERS: endpoint: mean survival time; dose: 100.0 mg/kg/injection; schedule: Q04DX003 (ip); vehicle: saline with Tween-80; higher = longer survival
Toxic doses and inconclusive results are not listed.
Exercise: state measured T/C for each of the compounds provided.

Example entries and their recorded answers appear below.
1. COc1cc(C(=O)N2CC3CCC(CC3)C2)cc(OC)c1OC: 93 % of control
2. COc1ccc(-c2cc(C(=O)O)c3ccc(C)cc3n2)cc1: 102 % of control
3. CN(C)c1ccc(/C=C2\C=Nc3ccccc32)cc1: 87 % of control
4. O=Cc1[nH]c(=S)[nH]c(=O)c1Cc1cccc2ccccc12: 96 % of control
5. O=C(c1ccccc1)C1OC1c1ccc(Cl)cc1 (stereo unspecified): 102 % of control

List the reported T/C of each compound below.
1. O=C(O)CCn1ccccc1=O
2. COc1ccc(C=NC2CC(C)CCC2C)c(OC)c1 (stereo unspecified)

1: 95 % of control; 2: 91 % of control

List T/C for every entry below, keeping the order given.
1. C[Si](C)(C)Nc1ncnc2c1ncn2[Si](C)(C)C
2. CC(C)(C)C(CCC(=O)O)CC(=O)O (stereo unspecified)
3. CC(=O)Nc1ccc2ccccc2c1
4. Nc1ccc(CCCCNC(=O)c2ccccc2)cc1
5. O=S1(=O)C2CCC(C2)C1Cl (stereo unspecified)

["103 % of control", "97 % of control", "103 % of control", "93 % of control", "88 % of control"]

Batch lookup, T/C per entry.
1. CC1(C)C2CCC1(C(=O)O)CC2
2. O=C(NC(COCc1ccccc1)C(=O)O)OCc1ccccc1 (stereo unspecified)
3. ClC(Cl)c1ccccc1C(Cl)(Cl)Cl
4. Cc1ccc(C(=O)/C=C/c2ccc(N(C)C)cc2)cc1
5. CC1CCC2CCCCC2[N-]1.CC1CCC2CCCCC2[N-]1.[Cl][Pt+2][Cl] (stereo unspecified)
6. CN(C)CCOc1ccccn1
7. O=C(O)c1cccc(COc2ccc([N+](=O)[O-])cc2Cl)c1

1: 92 % of control; 2: 88 % of control; 3: 94 % of control; 4: 87 % of control; 5: 94 % of control; 6: 92 % of control; 7: 91 % of control
